test system: gram positive bacteria; test: In vitro anti-bacterial activity assay (broth dilution MIC), gram positive bacteria; format: cell-based, S. aureus; conditions: Staphylococcus aureus, 18 h, S. aureus MRSA5; read-out: Median MIC's G+ S. aureus MRSA5
Simple rule here: MIC less than 20 µg/mL is yes (1), otherwise no (0).

See these solved cases before continuing.
| Molecule | Discrete label |
| --- | --- |
| CN(C)CCNC(=O)c1cccc(-c2ccc(O)c3c2C[C@H]2C[C@H]4CC(O)=C(C(N)=O)C(=O)[C@@]4(O)C(O)=C2C3=O)c1 | no (0) |
| CN(C)CCCCN(C)Cc1cccc(-c2ccc(O)c3c2C[C@H]2C[C@H]4[C@H](N(C)C)C(O)=C(C(N)=O)C(=O)[C@@]4(O)C(O)=C2C3=O)c1 | yes (1) |
| COc1ccc(-c2ccc(O)c3c2C[C@H]2C[C@H]4[C@H](N(C)C)C(O)=C(C(N)=O)C(=O)[C@@]4(O)C(O)=C2C3=O)cc1CNCC(N)=O | no (0) |
| CC(=O)NCCC(=O)c1ccc(O)c2c1C[C@H]1C[C@H]3[C@H](N(C)C)C(O)=C(C(N)=O)C(=O)[C@@]3(O)C(O)=C1C2=O | no (0) |

Hello, I'm reviewing records and need to know if MIC of `CN(C)CC/C(=N\OC(C)(C)C)c1ccc(O)c2c1C[C@H]1C[C@H]3[C@H](N(C)C)C(O)=C(C(N)=O)C(=O)[C@@]3(O)C(O)=C1C2=O` is below 20 µg/mL. Could you check? yes (1)

Quick one: `COCc1cccc(-c2ccc(O)c3c2C[C@H]2C[C@H]4[C@H](N(C)C)C(O)=C(C(N)=O)C(=O)[C@@]4(O)C(O)=C2C3=O)c1` yes (1)

Quick one: `CN(C)CCNC(=O)c1ccc(-c2ccc(O)c3c2C[C@H]2C[C@H]4[C@H](N(C)C)C(O)=C(C(N)=O)C(=O)[C@@]4(O)C(O)=C2C3=O)cc1` yes (1)

Quick one: COc1ccc(CNCc2ccc(-c3ccc(O)c4c3C[C@H]3C[C@H]5[C@H](N(C)C)C(O)=C(C(N)=O)C(=O)[C@@]5(O)C(O)=C3C4=O)cc2)cc1 (stereo in doubt) yes (1)

Quick one: `COC(=O)C1CCN(Cc2ccc(O)c3c2C[C@H]2C[C@H]4[C@H](N(C)C)C(O)=C(C(N)=O)C(=O)[C@@]4(O)C(O)=C2C3=O)CC1` yes (1)

Quick one: `CN(C)[C@@H]1C(O)=C(C(N)=O)C(=O)[C@@]2(O)C(O)=C3C(=O)c4c(O)ccc(C(=O)CNCc5ccco5)c4C[C@H]3C[C@@H]12` yes (1)

Quick one: `COCCNCC(=O)c1ccc(O)c2c1C[C@H]1C[C@H]3[C@H](N(C)C)C(O)=C(C(N)=O)C(=O)[C@@]3(O)C(O)=C1C2=O` no (0)

----------
experiment: in vitro; type: cell-based; conditions: Chinese hamster, Cytotox. CHO-K1
Experimental readout: IC50 at 24 h

Consider the following illustrative entries.
| Compound | IC50 at 24 h |
| --- | --- |
| CN(C)CCCN(C)Cc1cccc(-c2ccc(O)c3c2C[C@H]2C[C@H]4[C@H](N(C)C)C(O)=C(C(N)=O)C(=O)[C@@]4(O)C(O)=C2C3=O)c1 [CU] | > 124 µM |
| CN(C)[C@@H]1C(O)=C(C(N)=O)C(=O)[C@@]2(O)C(O)=C3C(=O)c4c(O)ccc(-c5cccc(CCCN)c5)c4C[C@H]3C[C@@H]12 [DG] | > 20 µM |

// moving on: another record for IC50 at 24 h
I would be grateful if you could share the reported IC50 at 24 h for CN(C)CCNCc1cccc(-c2ccc(O)c3c2C[C@H]2C[C@H]4[C@H](N(C)C)C(O)=C(C(N)=O)C(=O)[C@@]4(O)C(O)=C2C3=O)c1 [CS] . > 140 µM

----------
Reported Photo Toxicity UV Tox50 by item:
system: 3T3 fibroblast cells; test: In vitro phototoxicity assay (neutral red; UV light-treated vs dark control plates); assay type: cell-based; details: UV light 50 minutes

I would be grateful if you could share the reported Photo Toxicity UV Tox50 for `COC(=O)C1CCN(Cc2ccc(O)c3c2C[C@H]2C[C@H]4[C@H](N(C)C)C(O)=C(C(N)=O)C(=O)[C@@]4(O)C(O)=C2C3=O)CC1` . >140.07 µM

Quick one: `CN(C)[C@@H]1C(O)=C(C(N)=O)C(=O)[C@@]2(O)C(O)=C3C(=O)c4c(O)ccc(-c5cccc(CCCN6CCCCC6)c5)c4C[C@H]3C[C@@H]12` 45.65 µM

Quick one: COCCCNC(=O)c1cccc(-c2ccc(O)c3c2CC2CC4[C@H](N(C)C)C(O)=C(C(N)=O)C(=O)[C@@]4(O)C(O)=C2C3=O)c1 (stereo partly drawn) >152.62 µM

----------
tested on: gram negative bacteria; assay: In vitro anti-bacterial activity assay (broth dilution MIC), gram negative bacteria; format: cell-based, E. coli; conditions: Escherichia coli, ATCC25922, 18 h, E. coli ATCC 25922; read-out: Median MIC's G− E. coli ATCC 25922
Reported MIC by item:
Respond with the bare value in µg/mL.

Consider the following illustrative entries.
| Molecule | Tgt | Recorded value |
| --- | --- | --- |
| CN(C)[C@@H]1C(O)=C(C(N)=O)C(=O)[C@@]2(O)C(O)=C3C(=O)c4c(O)ccc(C(=O)CNCC(F)(F)F)c4C[C@H]3C[C@@H]12 | gram negative bacteria | 2 |
| CCN(CC)CCCC(C)NC(=O)c1ccc(O)c2c1C[C@H]1C[C@H]3[C@H](N(C)C)C(O)=C(C(N)=O)C(=O)[C@@]3(O)C(O)=C1C2=O (stereo partly drawn) | gram negative bacteria | 64 |
| CN1CCN(C(=O)c2cccc(-c3ccc(O)c4c3C[C@H]3C[C@H]5[C@H](N(C)C)C(O)=C(C(N)=O)C(=O)[C@@]5(O)C(O)=C3C4=O)c2)CC1 | gram negative bacteria | 8 |
| CN1CCN(CC(=O)c2ccc(O)c3c2C[C@H]2C[C@H]4[C@H](N(C)C)C(O)=C(C(N)=O)C(=O)[C@@]4(O)C(O)=C2C3=O)CC1 | gram negative bacteria | 32 |
| CN(C)[C@@H]1C(O)=C(C(N)=O)C(=O)[C@@]2(O)C(O)=C3C(=O)c4c(O)ccc(-c5cccc(C(=O)NCCN6CCCCC6)c5)c4C[C@H]3C[C@@H]12 | gram negative bacteria | 4 |

// moving on: another record for MIC
I would be grateful if you could share the reported MIC for `CN(C)[C@@H]1C(O)=C(C(N)=O)C(=O)[C@@]2(O)C(O)=C3C(=O)c4c(O)ccc(-c5cccc(/C=C/C#N)c5)c4C[C@H]3C[C@@H]12` . 64

----------
system: gram positive bacteria; test: In vitro anti-bacterial activity assay (broth dilution MIC), gram positive bacteria; assay type: cell-based, S. aureus; conditions: Staphylococcus aureus, 18 h, S. aureus MRSA5; read-out: Median MIC's G+ S. aureus MRSA5
Reported MIC by item:
Respond with the bare value in µg/mL.

Consider the following illustrative entries.
| Test smiles | MIC, µg/mL |
| --- | --- |
| CN(C)CCN(C)Cc1cccc(-c2ccc(O)c3c2C[C@H]2C[C@H]4[C@H](N(C)C)C(O)=C(C(N)=O)C(=O)[C@@]4(O)C(O)=C2C3=O)c1 | 4 |
| CN1CCN(Cc2cccc(-c3ccc(O)c4c3C[C@H]3C[C@H]5[C@H](N(C)C)C(O)=C(C(N)=O)C(=O)[C@@]5(O)C(O)=C3C4=O)c2)CC1 | 4 |
| CN(C)[C@@H]1C(O)=C(C(N)=O)C(=O)[C@@]2(O)C(O)=C3C(=O)c4c(O)ccc(-c5cccc(CCCO)c5)c4C[C@H]3C[C@@H]12 | 0.5 |
| CN(C)CCCNC(=O)c1cccc(-c2ccc(O)c3c2C[C@H]2C[C@H]4[C@H](N(C)C)C(O)=C(C(N)=O)C(=O)[C@@]4(O)C(O)=C2C3=O)c1 | 64 |

// moving on: another record for MIC
I would be grateful if you could share the reported MIC for `CN(C)[C@@H]1C(O)=C(C(N)=O)C(=O)[C@@]2(O)C(O)=C3C(=O)c4c(O)ccc(C(=O)Cn5ccnc5)c4C[C@H]3C[C@@H]12` . 64

----------
Reported log10 MIC by item:
Tested on: gram positive bacteria
Experiment: In vitro anti-bacterial activity assay (broth dilution MIC), gram positive bacteria
Format: cell-based, S. aureus
Conditions: Staphylococcus aureus, 18 h, S. aureus MRSA5; read-out: Median MIC's G+ S. aureus MRSA5
Description: Bacterial infections may be caused by a wide variety of gram positive and gram negative bacteria. Some of the compounds of the invention are useful as antibiotics against organisms which are resistant and/or sensitive to other tetracycline compounds. […] 50 μl of the cell suspensions were added to each well of microtiter plates. […] The plates were read with a microplate reader and were visually inspected when necessary. […]
Scale type: logarithmic (base 10). Underlying MIC unit: µg/mL.

| Compound | Recorded value |
| --- | --- |
| CC(C)N1CCN(CC(=O)c2ccc(O)c3c2C[C@H]2C[C@H]4[C@H](N(C)C)C(O)=C(C(N)=O)C(=O)[C@@]4(O)C(O)=C2C3=O)CC1 | 0.60 |
| CN(C)CCNC(=O)c1cccc(-c2ccc(O)c3c2C[C@H]2C[C@H]4[C@H](N(C)C)C(O)=C(C(N)=O)C(=O)[C@@]4(O)C(O)=C2C3=O)c1 | 1.51 |
| CN(C)[C@@H]1C(O)=C(C(N)=O)C(=O)[C@@]2(O)C(O)=C3C(=O)c4c(O)ccc(-c5ccccc5)c4C[C@H]3C[C@@H]12 | -0.60 |

I would be grateful if you could share the reported log10 MIC for CN(C)[C@@H]1C(O)=C(C(N)=O)C(=O)[C@@]2(O)C(O)=C3C(=O)c4c(O)ccc(-c5cccc(C(=O)NCCN6CCOCC6)c5)c4CC3CC12 (stereo partly drawn) . 0.60
